Readings of MIC for the listed compounds
Tested on: Staphylococcus aureus
measurement description: Antibacterial activity against Vancomycin-resistant Staphylococcus aureus 4 assessed as inhibition of bacterial growth incubated for 18 to 24 hrs by CLSI microbroth dilution method
Format: functional
measurement parameters: time 18-24 hrs
Number in µM, nothing else.

CCCCCCCCCCNC(=O)c1ccc(CN[C@@]2(C)C[C@H](O[C@H]3[C@H](Oc4c5cc6cc4Oc4ccc(cc4Cl)[C@@H](O)[C@@H](NC(=O)[C@@H](CC(C)C)NC)C(=O)N[C@@H](CC(N)=O)C(=O)N[C@H]6C(=O)N[C@H]4C(=O)N[C@H](C(=O)N[C@H](C(=O)O)c6cc(O)cc(O)c6-c6cc4ccc6O)[C@H](O)c4ccc(c(Cl)c4)O5)O[C@H](CO)[C@@H](O)[C@@H]3O)O[C@@H](C)[C@H]2O)cc1 :: 1

// next entry
Challenge: Return reported MIC; argument: CN[C@H](CC(C)C)C(=O)N[C@H]1C(=O)N[C@@H](CC(N)=O)C(=O)N[C@H]2C(=O)N[C@H]3C(=O)N[C@H](C(=O)N[C@H](C(=O)O)c4cc(O)cc(O)c4-c4cc3ccc4O)[C@H](O)c3ccc(c(Cl)c3)Oc3cc2cc(c3O[C@@H]2O[C@H](CO)[C@@H](O)[C@H](O)[C@H]2O[C@H]2C[C@](C)(NCc3ccc(-c4ccc(Cl)cc4)cc3)[C@H](O)[C@H](C)O2)Oc2ccc(cc2Cl)[C@H]1O
Response given: 2.1
